test: self-splicing fitness, log relative to wild type (ln ratio); higher = more splicing; Tetrahymena group I intron in knt gene, E. coli kanamycin selection, DiMSum; sequences stand for … in CUCUCU…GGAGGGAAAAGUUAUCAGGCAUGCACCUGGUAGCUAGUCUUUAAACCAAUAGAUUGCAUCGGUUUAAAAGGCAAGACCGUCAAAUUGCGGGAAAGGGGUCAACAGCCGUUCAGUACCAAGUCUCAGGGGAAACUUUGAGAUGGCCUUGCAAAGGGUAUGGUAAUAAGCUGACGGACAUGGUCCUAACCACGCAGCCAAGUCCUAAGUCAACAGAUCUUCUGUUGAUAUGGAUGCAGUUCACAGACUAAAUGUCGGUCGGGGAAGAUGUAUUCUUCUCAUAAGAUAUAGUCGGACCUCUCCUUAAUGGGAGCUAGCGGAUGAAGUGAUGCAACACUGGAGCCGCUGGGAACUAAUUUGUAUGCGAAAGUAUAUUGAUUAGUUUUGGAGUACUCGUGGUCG; details: 37 °C;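 also: selection with 25 µg/mL kanamycin versus none on LB agar overnight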
Lab note: anything with self-splicing fitness (ln) at or over -0.9 counts as criterion met; the rest go in criterion not met.

{"polymer_sequence": "CUACAGCAAUAUUACGAGCU", "assigned_label": "criterion not met"}
{"polymer_sequence": "CGCGAGCAAUAUUACGCACU", "assigned_label": "criterion not met"}
{"polymer_sequence": "CAUCAGCAAUAUUACGCUAG", "assigned_label": "criterion met"}

Prompt: Hi, just wondering whether `ACACAGCAAUAUUACGAACC` shows self-splicing fitness (ln) of -0.9 or higher.
Completion: criterion not met

Prompt: Hi, just wondering whether `ACAUAGCAAUAUUACGCCAU` shows self-splicing fitness (ln) of -0.9 or higher.
Completion: criterion not met

Prompt: Hi, just wondering whether `GCUAAGCAAUAUUACGGACA` shows self-splicing fitness (ln) of -0.9 or higher.
Completion: criterion not met

Prompt: Hi, just wondering whether `GUAAAGCAAUAUUACGCCCA` shows self-splicing fitness (ln) of -0.9 or higher.
Completion: criterion met

Prompt: Hi, just wondering whether `CCGAAGCAAUAUUACGUCUU` shows self-splicing fitness (ln) of -0.9 or higher.
Completion: criterion not met

Prompt: Hi, just wondering whether `UAUAAGCAAUAUUACGACGU` shows self-splicing fitness (ln) of -0.9 or higher.
Completion: criterion met

Prompt: Hi, just wondering whether `GCGCAGCAAUAUUACGAAAA` shows self-splicing fitness (ln) of -0.9 or higher.
Completion: criterion not met

Prompt: Hi, just wondering whether `UCUAAGCAAUAUUACGCUGU` shows self-splicing fitness (ln) of -0.9 or higher.
Completion: criterion not met

Prompt: Hi, just wondering whether `GGAAAGCAAUAUUACGGGUU` shows self-splicing fitness (ln) of -0.9 or higher.
Completion: criterion met

Prompt: Hi, just wondering whether `GAAGAGCAAUAUUACGUGCA` shows self-splicing fitness (ln) of -0.9 or higher.
Completion: criterion not met

Prompt: Hi, just wondering whether `GAUGAGCAAUAUUACGUCAG` shows self-splicing fitness (ln) of -0.9 or higher.
Completion: criterion not met

Prompt: Hi, just wondering whether `UACGAGCAAUAUUACGCCAG` shows self-splicing fitness (ln) of -0.9 or higher.
Completion: criterion not met

Prompt: Hi, just wondering whether `UGCUAGCAAUAUUACGCGUG` shows self-splicing fitness (ln) of -0.9 or higher.
Completion: criterion met
